Catalogue of Disease Control (%) SEPTTR-184 3DC readings, one per entry.
- System: Zymoseptoria tritici (SEPTTR-184)
- Measurement Notes: Cyp51 dsRNA tile (fragment) foliar application bioassay (Example 6)
- Format: in vivo
- Condition Label: 3 days curative; rate 50 ppm; average of 2 trials
Answer format: numeric, % implied, no suffix.

# example entries with known answers
Molecule	Disease Control (%) SEPTTR-184 3DC
MgCyp51-T2: dsRNA tile of Zymoseptoria tritici Cyp51, 165 bp, location 48-212 (nucleic acid, listed as Zymoseptoria tritici) CCAGACCAGCCTCTGGAAACTTGTCGGACTTGGATTCCTCGCCTTCAGCACGCTCGCCATCCTCCTCAATGTCCTCTCACAACTTCTCTTCCGTGGCAAGTTGTCCGATCCGCCACTCGTATTCCACTGGGTGCCCTTCATCGGAAGCACCATCACATACGGCAT	76
MgCyp51-T10: dsRNA tile of Zymoseptoria tritici Cyp51, 172 bp, location 345-516 (nucleic acid, listed as Zymoseptoria tritici) GGACGTCAACGCGGAGGAGATATACAGCCCGCTGACCACTCCTGTCTTTGGCAAGGATGTGGTTTATGATTGTCCCAATTCGAAGCTCATGGAGCAGAAGAAGTTCGTCAAGTACGGCCTCACAACCTCTGCCCTCCAGTCCTACGTGACCTTGATCGCCGCCGAGACCCGC	56

Here's the next entry for you.
Given the molecule MgCyp51-T13: dsRNA tile of Zymoseptoria tritici Cyp51, 119 bp, location 1517-1635 (nucleic acid, listed as Zymoseptoria tritici, long dsRNA tile, purified, chemistry not given here) ACAATGTGGATGGCAGCGACAACGTGGTGGGTACGGATTACAGCAGTTTGTTCAGCCGGCCGCTGTCGCCGGCAGTAGTAAAGTGGGAGAGGAGGGAGGAGAAGGAGGAGAAGAACTGA , what is its reported Disease Control (%) SEPTTR-184 3DC? 64
